# target system: eIF4E (28-217) (Mus musculus (murine), UniProt P63073 28-217)
# Sequence (P63073 28-217): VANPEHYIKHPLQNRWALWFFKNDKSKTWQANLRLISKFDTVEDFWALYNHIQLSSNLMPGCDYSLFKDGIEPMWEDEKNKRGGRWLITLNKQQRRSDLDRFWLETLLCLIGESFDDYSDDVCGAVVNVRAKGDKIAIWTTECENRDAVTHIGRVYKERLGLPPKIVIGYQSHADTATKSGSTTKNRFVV
# protocol summary: fluorescence quenching titration
quantity: pKd
Please note pKd is a logarithmic value: minus log10 of concentration in mol/L. Answer with that number alone.

GGG (XNA, m7G1; 5'-5' triphosphate between G1 and G2; 2'-O-methyl G2) [m7GpppGmpG] | 7.64
GCG (XNA, m7G1; 5'-5' triphosphate between G1 and C2; 2'-O-methyl C2) [m7GpppCmpG] | 7.52

Next up:
pKd for GAG (XNA, m7G1; 5'-5' triphosphate between G1 and A2; 2'-O-methyl A2) [m7GpppAmpG] ? 7.34
